test system: A549 cell line; assay: In vitro cytotoxic activity, MTT method, A549; details: A549, Conc. 0.0975 µMol
Reported Viability % values for the following compounds.

>  <compound>
COc1cccc2c1C(=O)c1c(O)c3c(c(O)c1C2=O)C[C@@](O)(C(=O)CO)C[C@@H]3O[C@H]1C[C@H](N)[C@H](O)[C@H](C)O1 [Douxrbicin]

>  <Viability % / %>
73.2

$$$$
>  <compound>
CC(=O)C1C(c2ccc(N(C)C)cc2)c2c(C)nc(SCC(=O)Nc3ccccc3)c(C#N)c2CC1(C)O (stereo not shown) [Compound 7a]

>  <Viability % / %>
99.87

$$$$
>  <compound>
CSc1nc(C)c2c(c1C#N)CC(C)(O)C(C(C)=O)C2c1ccc(N(C)C)cc1 (stereo not shown) [Compound 3]

>  <Viability % / %>
99.50

$$$$
>  <compound>
CC(=O)c1ccc(NC(=O)CSc2nc(C)c3c(c2C#N)CC(C)(O)C(C(C)=O)C3c2ccc(N(C)C)cc2)cc1 (stereo not shown) [Compound 7d]

>  <Viability % / %>
97.5431

$$$$
>  <compound>
CC(=O)C1C(c2ccc(N(C)C)cc2)c2c(C)nc(SCC#N)c(C#N)c2CC1(C)O (stereo not shown) [Compound 6]

>  <Viability % / %>
99.5

$$$$
>  <compound>
CC(=O)C1C(c2ccc(N(C)C)cc2)c2c(C)nc(SCC(=O)Nc3ccc(Cl)cc3)c(C#N)c2CC1(C)O (stereo not shown) [Compound 7c]

>  <Viability % / %>
95.3422

$$$$
>  <compound>
CC(=O)C1C(c2ccc(N(C)C)cc2)c2c(C)nc(SCC(=O)Nc3ccc(C)cc3)c(C#N)c2CC1(C)O (stereo not shown) [Compound 7b]

>  <Viability % / %>
99.6534

$$$$
